Biological target: ICAM-1 (Homo sapiens, UniProt P05362)
Sequence (P05362 28-480 limits assumed): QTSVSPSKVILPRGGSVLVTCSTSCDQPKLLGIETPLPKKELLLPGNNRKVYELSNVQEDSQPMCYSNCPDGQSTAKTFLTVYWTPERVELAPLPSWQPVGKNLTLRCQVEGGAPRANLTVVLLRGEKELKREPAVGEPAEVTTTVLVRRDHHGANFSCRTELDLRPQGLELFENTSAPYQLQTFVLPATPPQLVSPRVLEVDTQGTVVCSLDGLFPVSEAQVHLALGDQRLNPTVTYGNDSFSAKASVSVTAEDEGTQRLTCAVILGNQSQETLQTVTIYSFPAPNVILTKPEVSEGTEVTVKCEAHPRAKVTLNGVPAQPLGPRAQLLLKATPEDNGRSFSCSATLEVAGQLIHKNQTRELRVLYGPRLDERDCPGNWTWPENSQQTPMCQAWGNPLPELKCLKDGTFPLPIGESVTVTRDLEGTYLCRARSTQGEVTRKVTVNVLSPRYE
Test: BIAcore binding of soluble αL I-domains to ICAM-1
Conditions: curve fitting of dissociation phase, 1:1 binding model
measured.property: Koff, interaction of αL I-domains with ICAM-1 (s⁻¹)
Give the number; s⁻¹ is assumed, so skip it.

Just so you know, measured Koff, interaction of αL I-domains with ICAM-1 for L161C/T300C: intermediate-affinity open αL I-domain mutant, cysteines for L161 and T300 (protein) GNVDLVFLFDGSMSLQPDEFQKILDFMKDVMKKCSNTSYQFAAVQFSTSYKTEFDFSDYVKRKDPDALLKHVKHMLLLTNTFGAINYVATEVFREELGARPDATKVLIIITDGEATDSGNIDAAKDIIRYIIGIGKHFQTKESQETLHKFASKPASEFVKILDTFEKLKDLFCELQKKIY came out at 0.65
